# assay.explanation: Quantitative highthroughput screen to assess conditional lethalithy of SEM cells grown in RPMI1640 with dialyzed fetal bovine serum (RPMI+ds) (AID 1963884); also: nearly all actives have a fitted effect of over 35% in size; also: potency is read from the fitted curve at half-maximal effect
# setup.conditions: SEM B-ALL cells, RPMI+dialyzed FBS, CellTiter-Glo viability, 48 h; series mostly up to 45.8 µM
Records with an inconclusive call do not appear. Active and inactive are the calls of the source. Calls follow the shape of the dose curve; as a rule, active = well fitted cell-killing curve with a large enough effect; inconclusive = small, poorly fitted or top-dose-only effect, or effect the other way; inactive = no such curve, though single readings can be large or run the other way.
assay.metric: Potency

Solved cases below.
- compound: "O=C(O)c1cccnc1"
  Potency: "2960 nM (active)"
- compound: "COc1ccc2c3n(c(=NC(=O)c4cccnc4)nc2c1OC)CCN3"
  Potency: "9350 nM (active)"
- compound: "O=C(O)C1=NC(C(=O)O)CC(C=CN2c3cc(O)c(OC4OC(CO)C(O)C(O)C4O)cc3CC2C(=O)O)=C1 (stereo not given)"
  Potency: "inactive"
- compound: "N[C@@H](C(=O)N[C@@H]1C(=O)N2C(C(=O)O)=C(Cl)CS[C@H]12)c1ccccc1"
  Potency: "inactive"
- compound: "Cc1cn2c(-c3cn[nH]c3)cnc2c(Nc2ccc(C(=O)N3CCNCC3)cc2F)n1"
  Potency: "14800 nM (active)"

Which value of Potency has been reported for COc1ccc2c(OCc3nnc4ccc(-c5ccccc5)nn34)ccnc2c1 in the records?
18700 nM (active)

Would you mind telling me what Potency value was observed for COc1cc(OC2CCN(C)CC2)ccc1Nc1ncc2c(n1)n(C1CCCC1)c(=O)n2C ?
14800 nM (active)

What does the record list as Potency for CC1(C)C(=O)N(CCN2CCC(C(=O)c3ccc(F)cc3)CC2)c2ccccc21 ?
inactive

So what's the measured Potency for this one? N#Cc1c(NC(=O)c2cccc3ccccc23)sc2c1CCCC2
372 nM (active)

// Potency lookup, key: C[C@@]12O[C@@H](C[C@]1(O)CO)n1c3ccccc3c3c4c(c5c6ccccc6n2c5c31)CNC4=O
105 nM (active)

GET /values?readout=Potency&item= NS(=O)(=O)OC[C@@H]1C[C@@H](n2ccc3c(N[C@H]4CCc5ccccc54)ncnc32)C[C@H]1O
1320 nM (active)

Quick check: Potency of O=c1[nH]c(-c2ccc(C(F)(F)F)cc2)nc2c1CSCC2 ?
inactive

I would be grateful if you could share the reported Potency for N#CC(c1ccnc(NCCc2cccnc2)n1)c1nc2ccccc2s1 (stereo not given) .
inactive

Data credit: PubChem BioAssay (NCATS)
